- experimental_system: T1, human GPRC5D (human, UniProt Q9NZD1 1-345)
- T1 construct: whole, on cells; also called hGPRC5D; G-protein coupled receptor family C group 5 member D
- T1 sequence (Q9NZD1 whole entry): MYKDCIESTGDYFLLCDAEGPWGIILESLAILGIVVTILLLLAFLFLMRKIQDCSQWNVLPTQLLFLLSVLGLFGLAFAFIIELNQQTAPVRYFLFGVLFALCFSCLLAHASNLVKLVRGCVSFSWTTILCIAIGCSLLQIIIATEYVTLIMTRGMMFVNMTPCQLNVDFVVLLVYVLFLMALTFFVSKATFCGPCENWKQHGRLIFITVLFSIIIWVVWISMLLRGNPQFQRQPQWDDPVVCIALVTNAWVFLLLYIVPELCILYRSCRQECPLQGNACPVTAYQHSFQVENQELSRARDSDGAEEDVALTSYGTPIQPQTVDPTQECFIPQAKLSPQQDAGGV
- assay_name: FACS, HEK293T-hGPRC5D cells
value_kind: MFI

{"binder": "89F11E3 (antibody, V domains shown, Mouse monoclonal antibody from hybridoma subclone) VH: QVQLQQSGAELARPGASVKMSCKASGYTFTSSTIHWVKQRPGQGLAWIGYIVPSTGYTNYNQKFKDKATLTADKSSSTAYMQLTSLTSEDSAVYYCARSDGYPFGYSMAYWGQGTSVTVSS VL: DIQMNQSPSSLSASLGDTITITCHASQNINVWLSWYHQKPGNIPKLLIYKASNLHTGVPSRFSGSGSGTGFTLTISRLQPEDIATYYCQQGQSYPFTFGSGTKLEIK", "value": 19200}
{"binder": "83A9B8 (antibody, V domains shown, Mouse monoclonal antibody from hybridoma subclone) VH: EVQLQQSGPELVKPGASVKMSCKASGYTFSNYVIHWVKQKPGQGLEWIGYFNPYNDGSKYNEKFKGKATLTSDKSSSTAYMELSSLTSEDSAVYYCARGGVRRYFDVWGAGTTVTVSS VL: DIQMTQSPSSLSASLGERVSLTCRASQDIGDNLNWLQQEPDGTIKRLIYATFSLDSGVPKRFSGSRSGSVYSLTISRLESEDFVDYFCLHYASFPYTFGGGTKLEIK", "value": 4930}
